system: influenza A/Egypt/NRC098/2019(H1N1); test: microbe, parasite or virus in culture; assay type: cell-based, influenza A virus; conditions: Influenza A virus, H1N1, MDCK, 72 h
Counter-ions that a name gives are not always drawn.
experimental readout: IC50 (µg/mL)
Please reply with the bare figure in µg/mL and do not write the unit itself.

compound=CC1=NCCc2c1[nH]c1cc(O)ccc21 experimental_readout=IC50 endpoint_result=0.035

Item under review: NC12CC3CC(CC(C3)C1)C2 [Amantadine HCl, reference compound] . Reported IC50?
14.9

* * *

Reported inhibition at 10 µg/mL values for a set of molecules
system: influenza A/H5N1 virus; experiment: microbe, parasite or virus in culture; assay type: cell-based; conditions: Influenza A virus, H5N1, read-out: Viral replication (%) viral inhibition
Where a name gives a salt, the structure may show the parent alone.
Please reply with the bare figure in % and do not write the unit itself.

molecule=COc1ccc2c3c([nH]c2c1)C(C)=NCC3 target_under_test="influenza A/H5N1 virus" experimental_readout="inhibition at 10 µg/mL" endpoint_result=40.3

Item under review: Cc1nccc2c1[nH]c1ccccc12 . Reported inhibition at 10 µg/mL?
83.3

Item under review: O=C1C[C@@H]2OCC=C3CN4CC[C@]56c7ccccc7N1[C@H]5[C@H]2[C@H]3C[C@H]46 [Strychnine Sulfate, Strychnine sulfate] . Reported inhibition at 10 µg/mL?
27.3

Item under review: CC1=NCCc2c1[nH]c1cc(O)ccc21 . Reported inhibition at 10 µg/mL?
98.7

* * *

system: influenza A/chicken/Egypt/N12640A/2016(H5N1); experiment: microbe, parasite or virus in culture; format: cell-based, influenza A virus; details: Influenza A virus, H5N1, MDCK, 72 h
Counter-ions that a name gives are not always drawn.
Reported IC50 values for a set of molecules
Please reply with the bare figure in µg/mL and do not write the unit itself.

molecule=COc1ccc2c3c([nH]c2c1)C(C)=NCC3 experimental_readout=IC50 endpoint_result=3.42
molecule="O=C1C[C@@H]2OCC=C3CN4CC[C@]56c7ccccc7N1[C@H]5[C@H]2[C@H]3C[C@H]46 [Strychnine Sulfate, Strychnine sulfate]" experimental_readout=IC50 endpoint_result=11.8
molecule="CC(=O)N[C@H]1[C@H]([C@H](O)[C@H](O)CO)OC(C(=O)O)=C[C@@H]1N=C(N)N [Zanamivir, reference compound]" experimental_readout=IC50 endpoint_result=0.079
molecule=Cc1nccc2c1[nH]c1ccccc12 experimental_readout=IC50 endpoint_result=0.023
molecule=COC(=O)[C@H]1[C@H]2C[C@@H]3c4[nH]c5cc(OC)ccc5c4CCN3C[C@H]2C[C@@H](OC(=O)c2cc(OC)c(OC)c(OC)c2)[C@@H]1OC experimental_readout=IC50 endpoint_result=42.4
molecule="NC12CC3CC(CC(C3)C1)C2 [Amantadine HCl, reference compound]" experimental_readout=IC50 endpoint_result=17.6

In the following, a different molecule is considered.
Item under review: CC1=NCCc2c1[nH]c1cc(O)ccc21 . Reported IC50?
0.02

* * *

test system: influenza A/H1N1 virus; assay: microbe, parasite or virus in culture; format: cell-based; conditions: H1N1, read-out: Viral inhibition (%) Mean
Where a name gives a salt, the structure may show the parent alone.
Reported inhibition at 10 µg/mL values for a set of molecules
Please reply with the bare figure in % and do not write the unit itself.

molecule="O=C1C[C@@H]2OCC=C3CN4CC[C@]56c7ccccc7N1[C@H]5[C@H]2[C@H]3C[C@H]46 [Strychnine Sulfate, Strychnine sulfate]" unit_symbol=% endpoint_result=71.6
molecule=CC1=NCCc2c1[nH]c1cc(O)ccc21 unit_symbol=% endpoint_result=91.8
molecule=Cc1nccc2c1[nH]c1ccccc12 unit_symbol=% endpoint_result=55.1

In the following, a different molecule is considered.
Item under review: COc1ccc2c3c([nH]c2c1)C(C)=NCC3 . Reported inhibition at 10 µg/mL?
77.8

* * *

Reported IC50 values for a set of compounds
system: influenza A/Egypt/NRC098/2019(H1N1); test: microbe, parasite or virus in culture; type: cell-based, influenza A virus; conditions: Influenza A virus, H1N1, MDCK, 72 h
Structures can show the parent of a compound that is named as a salt.
Please reply with the bare figure in µg/mL and do not write the unit itself.

compound="O=C1C[C@@H]2OCC=C3CN4CC[C@]56c7ccccc7N1[C@H]5[C@H]2[C@H]3C[C@H]46 [Strychnine Sulfate, Strychnine sulfate]" experimental_readout=IC50 endpoint_result=0.06
compound="Cc1nccc2c1[nH]c1ccccc12 [Harmane]" experimental_readout=IC50 endpoint_result=0.033
compound="COc1ccc2c3c([nH]c2c1)C(C)=NCC3 [Harmaline]" experimental_readout=IC50 endpoint_result=0.056

In the following, a different compound is considered.
Item under review: CC(=O)N[C@H]1[C@H]([C@H](O)[C@H](O)CO)OC(C(=O)O)=C[C@@H]1N=C(N)N [Zanamivir, reference compound] . Reported IC50?
0.291

* * *

system: influenza A/chicken/Egypt/N12640A/2016(H5N1); experiment: microbe, parasite or virus in culture; assay type: cell-based, influenza A virus; settings: Influenza A virus, H5N1, MDCK, 72 h
experimental readout: IC50

Here are 3 compounds together with their reported answers.
chemical_string=COc1ccc2c(c1)[nH]c1c(C)nccc12 experimental_readout=IC50 endpoint_result="> 10000 µg/mL"
chemical_string=CC[C@@H](CO)NC(=O)[C@@H]1C=C2c3cccc4[nH]cc(c34)C[C@H]2N(C)C1 experimental_readout=IC50 endpoint_result="> 1000 µg/mL"
chemical_string=COc1cc2c(cc1OC)[C@@]13CCN4CC5=CCO[C@H]6CC(=O)N2[C@H]1[C@H]6[C@H]5C[C@H]43 experimental_readout=IC50 endpoint_result="> 10000 µg/mL"

Item under review: c1ccc2c(c1)[nH]c1cnccc12 . Reported IC50?
> 10000 µg/mL

Item under review: CNC(=O)Oc1ccc2c(c1)[C@]1(C)CCN(C)[C@@H]1N2C . Reported IC50?
> 10000 µg/mL
